The reported measurements were obtained from ChEMBL document CHEMBL3436046.

measurement.target: Voltage-dependent L-type calcium channel subunit alpha-1C (Rattus norvegicus, UniProt P22002)
Sequence (P22002 whole entry): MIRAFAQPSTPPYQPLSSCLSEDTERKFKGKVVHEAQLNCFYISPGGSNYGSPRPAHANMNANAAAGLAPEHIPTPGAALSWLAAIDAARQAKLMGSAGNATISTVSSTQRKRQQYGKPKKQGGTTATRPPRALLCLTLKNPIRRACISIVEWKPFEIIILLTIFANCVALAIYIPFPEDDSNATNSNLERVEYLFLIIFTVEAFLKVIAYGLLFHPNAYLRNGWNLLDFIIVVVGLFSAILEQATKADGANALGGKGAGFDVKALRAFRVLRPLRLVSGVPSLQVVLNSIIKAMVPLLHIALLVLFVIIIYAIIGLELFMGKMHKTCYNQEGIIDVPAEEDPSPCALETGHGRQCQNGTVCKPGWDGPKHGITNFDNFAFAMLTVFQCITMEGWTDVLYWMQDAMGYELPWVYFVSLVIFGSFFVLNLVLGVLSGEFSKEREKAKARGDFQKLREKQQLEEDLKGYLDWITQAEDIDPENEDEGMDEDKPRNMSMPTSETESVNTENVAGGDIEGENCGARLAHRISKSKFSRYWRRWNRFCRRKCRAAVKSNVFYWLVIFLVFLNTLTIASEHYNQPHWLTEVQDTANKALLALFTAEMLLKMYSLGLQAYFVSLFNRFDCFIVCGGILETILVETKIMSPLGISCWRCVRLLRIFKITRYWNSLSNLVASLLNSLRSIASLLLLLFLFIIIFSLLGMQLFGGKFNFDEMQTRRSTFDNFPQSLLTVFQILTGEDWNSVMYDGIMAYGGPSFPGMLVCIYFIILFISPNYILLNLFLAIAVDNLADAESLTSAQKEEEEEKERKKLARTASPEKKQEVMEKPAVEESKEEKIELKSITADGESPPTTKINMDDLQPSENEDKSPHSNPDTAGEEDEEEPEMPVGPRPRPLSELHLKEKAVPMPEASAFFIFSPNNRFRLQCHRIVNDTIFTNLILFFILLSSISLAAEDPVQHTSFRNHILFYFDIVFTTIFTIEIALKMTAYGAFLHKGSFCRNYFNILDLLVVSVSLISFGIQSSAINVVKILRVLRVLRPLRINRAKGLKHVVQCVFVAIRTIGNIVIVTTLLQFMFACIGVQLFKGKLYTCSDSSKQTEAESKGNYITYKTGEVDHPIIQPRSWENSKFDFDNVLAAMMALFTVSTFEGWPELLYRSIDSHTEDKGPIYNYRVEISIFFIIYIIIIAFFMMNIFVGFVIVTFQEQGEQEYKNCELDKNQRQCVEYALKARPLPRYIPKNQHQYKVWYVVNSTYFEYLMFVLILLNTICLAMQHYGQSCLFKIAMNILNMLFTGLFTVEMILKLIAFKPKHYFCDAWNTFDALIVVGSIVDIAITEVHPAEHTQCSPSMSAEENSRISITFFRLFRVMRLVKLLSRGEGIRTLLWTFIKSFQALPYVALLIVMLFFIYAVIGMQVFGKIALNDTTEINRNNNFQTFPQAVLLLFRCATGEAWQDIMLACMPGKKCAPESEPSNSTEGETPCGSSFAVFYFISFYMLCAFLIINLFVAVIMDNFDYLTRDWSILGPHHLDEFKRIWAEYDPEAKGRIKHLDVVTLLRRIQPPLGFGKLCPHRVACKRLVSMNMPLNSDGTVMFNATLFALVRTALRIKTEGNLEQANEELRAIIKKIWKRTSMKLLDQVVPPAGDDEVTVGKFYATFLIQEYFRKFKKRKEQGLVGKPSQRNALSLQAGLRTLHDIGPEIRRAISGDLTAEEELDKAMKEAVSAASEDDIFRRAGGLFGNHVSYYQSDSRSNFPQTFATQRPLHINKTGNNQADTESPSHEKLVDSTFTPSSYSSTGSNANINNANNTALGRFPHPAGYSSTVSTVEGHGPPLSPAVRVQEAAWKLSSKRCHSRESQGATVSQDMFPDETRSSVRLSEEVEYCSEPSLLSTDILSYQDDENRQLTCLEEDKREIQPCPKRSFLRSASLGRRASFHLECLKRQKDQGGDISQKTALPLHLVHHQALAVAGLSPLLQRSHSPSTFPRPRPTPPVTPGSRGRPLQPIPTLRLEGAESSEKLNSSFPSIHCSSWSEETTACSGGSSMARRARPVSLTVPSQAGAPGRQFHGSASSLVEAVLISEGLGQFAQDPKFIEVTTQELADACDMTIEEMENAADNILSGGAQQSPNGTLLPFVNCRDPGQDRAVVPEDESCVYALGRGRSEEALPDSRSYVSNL
assay.name: Inhibition of L-type calcium channel measured using whole-cell patch clamp in rat ventricular myocytes
Format: functional, cell-based, Heart, Ventricular myocyte
Design: ca sol conc 2 mM, temp room
pIC50: −log10 of the molar value.
reported.property: pIC50

smiles_code=CN(C)CCC=C1c2ccccc2CCc2ccccc21 result_number=5.43

* * *

measurement.target: Voltage-dependent L-type calcium channel subunit alpha-1C (Cavia porcellus, UniProt O35505)
assay.name: Inhibition of L-type calcium channel measured using whole-cell patch clamp in guinea pig ventricular myocytes
Assay type: functional, cell-based, Heart, Ventricular myocyte
Design: ca sol conc 2 mM, temp 35.5-36.5 C
pIC50: −log10 of the molar value.
reported.property: pIC50

compound="CN1CCCC(n2nc(Cc3ccc(Cl)cc3)c3ccccc3c2=O)CC1 (stereo unspecified) [AZELASTINE]" result_number=4.69

* * *

measurement.target: Voltage-dependent L-type calcium channel subunit alpha-1C (Rattus norvegicus)
assay.name: Inhibition of L-type calcium channel measured using whole-cell patch clamp in rat ventricular myocytes
Type: functional, cell-based, Heart, Ventricular myocyte
Parameters: ca sol conc 1 mM, temp 21-23 C
pIC50: −log10 of the molar value.
reported.property: pIC50

smiles_code=COc1ccc(CCN(C)CCCOc2ccc(S(=O)(=O)c3c(C(C)C)cn4ccccc34)cc2)cc1OC result_number=7.66

* * *

measurement.target: Voltage-dependent L-type calcium channel subunit alpha-1C (Cavia porcellus)
assay.name: Inhibition of L-type calcium channel measured using whole-cell patch clamp in guinea pig ventricular myocytes
Type: functional, cell-based, Heart, Ventricular myocyte
Parameters: ca sol conc 1.8 mM, temp 20-22 C
pIC50: −log10 of the molar value.
reported.property: pIC50

compound="COc1cc(N)c(Cl)cc1C(=O)NC1CCN(CCCOc2ccc(F)cc2)CC1OC (stereo unspecified) [CISAPRIDE]" measurement_target="Voltage-dependent L-type calcium channel subunit alpha-1C (Cavia porcellus)" result_number=4.33

* * *

measurement.target: Voltage-dependent L-type calcium channel subunit alpha-1C (Cavia porcellus, UniProt O35505)
assay.name: Inhibition of L-type calcium channel measured using whole-cell patch clamp in guinea pig ventricular myocytes
Assay type: functional, cell-based, Heart, Ventricular myocyte
Parameters: ca sol conc 1.8 mM, temp 20-22 C
reported.property: IC50 (nM)

compound="CC(C)COCC(CN(Cc1ccccc1)c1ccccc1)N1CCCC1 (stereo unspecified)" unit_descriptor=nM result_number=2600

* * *

measurement.target: Voltage-dependent L-type calcium channel subunit alpha-1C (Cavia porcellus)
assay.name: Inhibition of L-type calcium channel measured using whole-cell patch clamp in guinea pig ventricular myocytes
Format: functional, cell-based, Heart, Ventricular myocyte
Parameters: ca sol conc 1 mM, temp 20 C
reported.property: IC50 (µM)

compound="CC(NCCC(c1ccccc1)c1ccccc1)c1ccccc1 (stereo unspecified)" measurement_target="Voltage-dependent L-type calcium channel subunit alpha-1C (Cavia porcellus)" result_number=17

* * *

measurement.target: Voltage-dependent L-type calcium channel subunit alpha-1C (Homo sapiens, UniProt Q13936)
Sequence (Q13936 whole entry): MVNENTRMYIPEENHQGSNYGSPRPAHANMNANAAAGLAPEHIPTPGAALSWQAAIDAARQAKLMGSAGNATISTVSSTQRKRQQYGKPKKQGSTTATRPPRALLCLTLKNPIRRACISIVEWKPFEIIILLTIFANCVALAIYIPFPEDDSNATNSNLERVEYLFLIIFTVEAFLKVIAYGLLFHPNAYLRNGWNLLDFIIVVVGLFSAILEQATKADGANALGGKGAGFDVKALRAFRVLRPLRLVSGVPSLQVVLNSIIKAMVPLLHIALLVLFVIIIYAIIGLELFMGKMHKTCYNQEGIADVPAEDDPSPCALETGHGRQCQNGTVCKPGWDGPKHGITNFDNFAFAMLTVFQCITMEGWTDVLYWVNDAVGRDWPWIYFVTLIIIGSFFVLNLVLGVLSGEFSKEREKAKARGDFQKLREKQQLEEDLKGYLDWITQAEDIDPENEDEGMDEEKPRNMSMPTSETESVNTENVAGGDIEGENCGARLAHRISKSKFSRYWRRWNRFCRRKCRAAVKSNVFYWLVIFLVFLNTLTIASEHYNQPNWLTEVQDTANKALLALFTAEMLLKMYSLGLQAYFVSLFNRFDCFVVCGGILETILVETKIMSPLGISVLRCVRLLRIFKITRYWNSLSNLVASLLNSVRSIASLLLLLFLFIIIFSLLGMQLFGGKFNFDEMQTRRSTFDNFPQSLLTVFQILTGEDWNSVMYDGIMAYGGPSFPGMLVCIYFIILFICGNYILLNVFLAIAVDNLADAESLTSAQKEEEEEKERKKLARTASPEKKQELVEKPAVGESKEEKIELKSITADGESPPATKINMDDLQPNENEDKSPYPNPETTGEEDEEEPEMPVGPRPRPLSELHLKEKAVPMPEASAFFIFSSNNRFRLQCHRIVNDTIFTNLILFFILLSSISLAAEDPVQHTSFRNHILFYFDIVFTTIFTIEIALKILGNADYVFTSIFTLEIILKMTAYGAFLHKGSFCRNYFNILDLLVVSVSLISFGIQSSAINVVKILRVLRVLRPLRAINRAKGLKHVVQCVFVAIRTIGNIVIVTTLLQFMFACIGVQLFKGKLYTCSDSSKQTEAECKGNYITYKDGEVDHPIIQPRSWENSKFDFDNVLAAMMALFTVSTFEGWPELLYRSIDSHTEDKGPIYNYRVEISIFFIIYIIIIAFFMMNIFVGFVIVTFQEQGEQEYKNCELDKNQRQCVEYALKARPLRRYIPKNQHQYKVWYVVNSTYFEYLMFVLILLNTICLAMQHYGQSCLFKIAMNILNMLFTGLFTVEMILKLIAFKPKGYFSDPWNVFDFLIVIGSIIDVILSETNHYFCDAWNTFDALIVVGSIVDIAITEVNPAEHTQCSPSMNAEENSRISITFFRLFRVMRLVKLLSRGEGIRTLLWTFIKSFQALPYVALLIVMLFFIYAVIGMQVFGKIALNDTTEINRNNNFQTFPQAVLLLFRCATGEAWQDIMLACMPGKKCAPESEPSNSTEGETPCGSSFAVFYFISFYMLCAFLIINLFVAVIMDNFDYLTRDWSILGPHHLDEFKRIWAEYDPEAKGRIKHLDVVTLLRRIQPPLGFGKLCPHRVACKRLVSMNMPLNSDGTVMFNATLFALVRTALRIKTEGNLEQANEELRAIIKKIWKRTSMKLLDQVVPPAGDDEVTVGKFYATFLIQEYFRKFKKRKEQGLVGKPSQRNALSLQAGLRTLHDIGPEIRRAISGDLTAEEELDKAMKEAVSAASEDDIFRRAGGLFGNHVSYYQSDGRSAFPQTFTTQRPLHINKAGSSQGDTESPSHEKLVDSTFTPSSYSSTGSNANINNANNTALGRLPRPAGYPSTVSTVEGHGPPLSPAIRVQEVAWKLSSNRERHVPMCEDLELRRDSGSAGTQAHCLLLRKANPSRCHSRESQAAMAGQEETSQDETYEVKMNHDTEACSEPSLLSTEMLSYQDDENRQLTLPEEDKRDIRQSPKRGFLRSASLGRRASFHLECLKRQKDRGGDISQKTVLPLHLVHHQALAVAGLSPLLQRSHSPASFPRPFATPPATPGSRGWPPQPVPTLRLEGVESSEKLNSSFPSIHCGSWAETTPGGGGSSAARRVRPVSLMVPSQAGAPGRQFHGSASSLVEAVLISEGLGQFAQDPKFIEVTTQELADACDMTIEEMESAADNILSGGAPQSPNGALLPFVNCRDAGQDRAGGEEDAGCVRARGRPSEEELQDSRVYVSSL
assay.name: Inhibition of L-type calcium channel measured using […] kidney cells heterologically expressing alpha-1C subunit
Assay type: functional, cell-based, HEK293
Parameters: ca sol conc 0 mM, temp room
reported.property: IC50 (mM)

compound="FC(F)(F)C(Cl)Br (stereo unspecified) [HALOTHANE]" reported_property=IC50 result_number=14.5

* * *

measurement.target: Voltage-dependent L-type calcium channel subunit alpha-1C (Cavia porcellus, UniProt O35505)
assay.name: Inhibition of L-type calcium channel measured using whole-cell patch clamp in guinea pig ventricular myocytes
Type: functional, cell-based, Heart, Ventricular myocyte
Set-up: ca sol conc 1 mM, temp room
reported.property: IC50 (nM)

molecule="CCCC(=O)OCOC(=O)C1=C(C)NC(C)=C(C(=O)OC)C1c1cccc(Cl)c1Cl (stereo unspecified) [CLEVIDIPINE]" unit_descriptor=nM result_number=7.1

* * *

In this section we review reported pIC50 values for a set of compounds.
measurement.target: Voltage-dependent L-type calcium channel subunit alpha-1C (Cavia porcellus)
assay.name: Inhibition of L-type calcium channel measured using whole-cell patch clamp in guinea pig ventricular myocytes
Type: functional, cell-based, Heart, Ventricular myocyte
Set-up: ca sol conc 1.8 mM, temp room
pIC50: −log10 of the molar value.
reported.property: pIC50

compound="c1ccc(C2(c3ccccc3)CC2C2=NCCN2)cc1 (stereo not drawn) [CIFENLINE]" result_number=4.85
compound="Cc1ccc(O)c([C@H](CCN(C(C)C)C(C)C)c2ccccc2)c1 [TOLTERODINE]" result_number=6.84
compound="Clc1ccccc1C(c1ccccc1)(c1ccccc1)n1ccnc1 [CLOTRIMAZOLE]" result_number=4.70

* * *

measurement.target: Voltage-dependent L-type calcium channel subunit alpha-1C (Homo sapiens, UniProt Q13936)
assay.name: Inhibition of L-type calcium channel measured using 2-electrode voltage-clamp in Xenopus oocyte heterologically expressing alpha-1C subunit
Format: functional, cell-based
Set-up: ca sol conc 0 mM, temp room
pIC50: −log10 of the molar value.
reported.property: pIC50

compound="COC(=O)C1=C(C)NC(C)=C(C(=O)O[C@H]2CCN(Cc3ccccc3)C2)[C@H]1c1cccc([N+](=O)[O-])c1 [BARNIDIPINE]" measurement_target="Voltage-dependent L-type calcium channel subunit alpha-1C (Homo sapiens, UniProt Q13936)" result_number=5.92

* * *

measurement.target: Voltage-dependent L-type calcium channel subunit alpha-1C (Rattus norvegicus)
assay.name: Inhibition of L-type calcium channel measured using whole-cell patch clamp in rat ventricular myocytes
Type: functional, cell-based, Heart, Ventricular myocyte
Set-up: ca sol conc 1 mM, temp 1 C
pIC50: −log10 of the molar value.
reported.property: pIC50

smiles_code=COc1ccc(C(C)=O)c(O)c1 reported_property=pIC50 result_number=3.25

* * *

measurement.target: Voltage-dependent L-type calcium channel subunit alpha-1C (Homo sapiens)
assay.name: Inhibition of L-type calcium channel measured using […] kidney cells heterologically expressing alpha-1C subunit
Assay type: functional, cell-based, HEK293
Set-up: ca sol conc 0 mM, temp 20-25 C
reported.property: IC50 (nM)

compound="COc1ccc(CCN(C)CCCC(C#N)(c2cc(OC)c(OC)c(OC)c2)C(C)C)cc1OC (stereo unspecified)" measurement_target="Voltage-dependent L-type calcium channel subunit alpha-1C (Homo sapiens)" result_number=17

* * *

measurement.target: Voltage-dependent L-type calcium channel subunit alpha-1C (Rattus norvegicus)
assay.name: Inhibition of L-type calcium channel measured using whole-cell patch clamp in rat ventricular myocytes
Type: functional, cell-based, Heart, Ventricular myocyte
Set-up: ca sol conc 1 mM, temp 21-23 C
pIC50: −log10 of the molar value.
reported.property: pIC50

smiles_code=COc1ccc(CCN(C)CCCOc2ccc(S(=O)(=O)c3c(C(C)C)cn4ccccc34)cc2)cc1OC result_number=5.05

* * *

measurement.target: Voltage-dependent L-type calcium channel subunit alpha-1C (Cavia porcellus)
assay.name: Inhibition of L-type calcium channel measured using whole-cell patch clamp in guinea pig ventricular myocytes
Assay type: functional, cell-based, Heart, Ventricular myocyte
Parameters: ca sol conc 2 mM, temp room
reported.property: IC50 (nM)

smiles_code=COc1ccc([C@@H]2Sc3ccccc3N(CCN(C)CCc3ccc(OC)c(OC)c3)C(=O)[C@@H]2OC(C)=O)cc1 unit_descriptor=nM result_number=25.7

* * *

// reported pIC50 per item
measurement.target: Voltage-dependent L-type calcium channel subunit alpha-1C (Rattus norvegicus, UniProt P22002)
assay.name: Inhibition of L-type calcium channel measured using whole-cell patch clamp in rat ventricular myocytes
Format: functional, cell-based, Heart, Ventricular myocyte
Set-up: ca sol conc 1.8 mM, temp 22-24 C
pIC50: −log10 of the molar value.
reported.property: pIC50

smiles_code=O=c1c(-c2ccc(O)cc2)coc2cc(O)ccc12 reported_property=pIC50 result_number=4.92
smiles_code=O=c1c(-c2ccc(O)cc2)coc2cc(O)cc(O)c12 reported_property=pIC50 result_number=4.96

* * *

measurement.target: Voltage-dependent L-type calcium channel subunit alpha-1C (Cavia porcellus, UniProt O35505)
assay.name: Inhibition of L-type calcium channel measured using whole-cell patch clamp in guinea pig ventricular myocytes
Assay type: functional, cell-based, Heart, Ventricular myocyte
Design: ca sol conc None mM, temp 36 C
pIC50: −log10 of the molar value.
reported.property: pIC50

molecule="COC(=O)C1=C(C)NC(C)=C(C(=O)OCC(C)C)C1c1ccccc1[N+](=O)[O-] (stereo unspecified)" result_number=6.14

* * *

measurement.target: Voltage-dependent L-type calcium channel subunit alpha-1C (Rattus norvegicus, UniProt P22002)
assay.name: Inhibition of L-type calcium channel measured using whole-cell patch clamp in rat ventricular myocytes
Assay type: functional, cell-based, Heart, Ventricular myocyte
Set-up: ca sol conc 1.8 mM, temp room
reported.property: IC50 (nM)

compound="CCCC[N+]1(CCCC(=O)c2ccc(F)cc2)CCC(O)(c2ccc(Cl)cc2)CC1 (stereo unspecified)" reported_property=IC50 unit_descriptor=nM result_number=170

* * *

measurement.target: Voltage-dependent L-type calcium channel subunit alpha-1C (Homo sapiens)
assay.name: Inhibition of L-type calcium channel measured using 2-electrode voltage-clamp in Xenopus oocyte heterologically expressing alpha-1C subunit
Assay type: functional, cell-based
Set-up: ca sol conc 0 mM, temp room
reported.property: IC50 (µM)

molecule="COC(=O)C1=C(C)NC(C)=C(C(=O)OC2CCCN(Cc3ccccc3)C2)C1c1cccc([N+](=O)[O-])c1 (stereo unspecified)" result_number=4.9
